Values from the supplement of paper PMC9732359

experimentalProtocol: protein stability index of a GFP-peptide fusion (yeast GPS) (PSI 1-4); higher = more stable; sorted into four equal gates, so the index is relative within each strain
recordedConditions: san1∆
Kindly supply the reported protein stability index values for the records listed here.

                      residuesequence  result
0            SESQLNSTLKKVESQET [YCS4]    3.31
1            QQQIESNEEQRNLDSAT [SMC3]    3.43
2  NPSYPGMMSTTGTARLN [YJL039C/NUP192]    3.13

Record protein stability index per entry; entries follow.
1. LDDEKIFSQTTNSTYNP [YJL039C/NUP192]
2. RSDREYPLLIRMSYGSH [SRP14]

[A]
2.91
1.92

Record protein stability index per entry; entries follow.
1. TLKLRARQRGKLKKSEE [SRP68]
2. AMQYVCGDSIICNTLNI [SMC1]
3. FEQPSQREEAKKVVKKA [RPL27A]
4. PLIWQLLQSSIINKLIH [POP3]
5. MSGYDRALSIFSPDGHI [PRE6]

[A]
[3.36, 1.5, 3.13, 2.01, 2.76]

Record protein stability index per entry; entries follow.
1. TEIENYLLENNQVGTDE [YDL116W/NUP84]
2. LEDYVPHQSPDATRVFV [RPB2]
3. PPPPPPPGYEIEELDNP [PRP8]
4. QLKHTKLALAENDTNMN [SMC4]
5. TAKKTNRSAYDSKNTPN [YDL088C/ASM4]

[A]
3.39
2.97
3.04
3.25
2.94
